# Tested on: bedstraw
# assay.info: Test B pre/postemergence bedstraw
# Assay type: in vivo, Galium aparine
# experimental.context: Postemergence, Rate 250 g/ha; scale 0 to 10, 0 no effect, 10 complete control
Overview of recorded Bedstraw plant response rating for various molecules
Give the figure by itself; no unit, no explanation.

substance_smiles=CC(C)N(C(=O)n1oc(=O)n(-c2ccccc2OC(F)(F)F)c1=O)c1ccc(F)cc1 value_type="Bedstraw plant response rating" test_result=0

// query Item CCN(CC)C(=O)n1oc(=O)n(-c2ccc(F)cc2)c1=O has what recorded Bedstraw plant response rating?
// result 0

// query Sample COc1ccc(-n2c(=O)on(C(=O)N(c3ccc(F)cc3)C(C)C)c2=O)cc1 — what was its Bedstraw plant response rating?
// result 4

// query Reported Bedstraw plant response rating for COc1cccc(C)c1-n1c(=O)on(C(=O)N(c2ccccc2)C(C)C)c1=O : what is it?
// result 7
